target: KRAS G12C-BRAF complex (Homo sapiens (Human), UniProt P01116+P62937, G12C); experiment: KRAS-BRAF with CYPA (500 nM) interaction assay (TR-FRET, Example 136); assay type: biochemical; details: KRAS G12C-BRAF disruption
Sequence (P01116-2 other isoform, or with tags, fused parts or gaps G12C): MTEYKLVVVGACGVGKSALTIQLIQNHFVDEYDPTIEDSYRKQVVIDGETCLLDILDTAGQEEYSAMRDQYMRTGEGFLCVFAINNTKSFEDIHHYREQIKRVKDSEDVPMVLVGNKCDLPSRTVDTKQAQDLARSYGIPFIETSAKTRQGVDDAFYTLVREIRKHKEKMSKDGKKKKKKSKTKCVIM
Sequence (P62937 whole entry): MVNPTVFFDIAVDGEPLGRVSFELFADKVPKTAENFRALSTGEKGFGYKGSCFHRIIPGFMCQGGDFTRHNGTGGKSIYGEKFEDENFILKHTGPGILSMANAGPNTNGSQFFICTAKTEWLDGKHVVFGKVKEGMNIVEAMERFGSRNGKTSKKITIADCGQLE
Listed next: entries and their corresponding IC50.
MEASURED_ENDPOINT: IC50 (nM)

1) CO[C@@H](C)c1ncc(N2CCN(C)CC2)cc1-c1c2c3cc(cc4c3n1CCO4)-c1csc(n1)C[C@H](NC(=O)[C@H]1C[C@@H]1C(F)F)C(=O)N1CCC[C@H](N1)C(=O)OCC(C)(C)C2 (atropisomer, axis not shown; (M)) | 31.8
2) CO[C@@H](C)c1ncc(N2CCN(C)CC2)cc1-c1c2c3cc(cc4c3n1CCO4)-c1csc(n1)C[C@H](NC(=O)[C@H]1C[C@@H]1c1cccnc1)C(=O)N1CCC[C@H](N1)C(=O)OCC(C)(C)C2 (atropisomer, axis not shown; (M)) | 9.4
3) CO[C@@H](C)c1ncc(N2CCN(CC(F)(F)F)CC2)cc1-c1c2c3cc(cc4c3n1CCC4)-c1csc(n1)C[C@H](NC(=O)[C@H]1C[C@@H]1C)C(=O)N1CCC[C@H](N1)C(=O)OCC(C)(C)C2 (atropisomer, axis not shown; (M)) | 31.4
4) CO[C@@H](C)c1ncc(N2CCN(C)CC2)cc1-c1c2c3cc(cc4c3n1CCC4)-c1csc(n1)C[C@H](NC(=O)[C@H]1C[C@@H]1C)C(=O)N1CCC[C@H](N1)C(=O)OCC(C)(C)C2 (atropisomer, axis not shown; (M)) | 28.8
5) CO[C@@H](C)c1ncc(N2CCN(C)CC2)cc1-c1c2c3cc(cc4c3n1CCC4)-c1csc(n1)C[C@H](NC(=O)[C@H]1C[C@@H]1c1ccncn1)C(=O)N1CCC[C@H](N1)C(=O)OCC(C)(C)C2 (atropisomer, axis not shown; (M)) | 22
6) CO[C@@H](C)c1ncc(N2CCN3CCOC[C@@H]3C2)cc1-c1c2c3cc(cc4c3n1CCC4)-c1csc(n1)C[C@H](NC(=O)[C@H]1C[C@@H]1C(F)F)C(=O)N1CCC[C@H](N1)C(=O)OCC(C)(C)C2 (atropisomer, axis not shown; (M)) | 23.8
7) CO[C@@H](C)c1ncc(N2CCOCC2)cc1-c1c2c3cc(cc4c3n1CCO4)-c1csc(n1)C[C@H](NC(=O)[C@H]1C[C@@H]1c1cncnc1)C(=O)N1CCC[C@H](N1)C(=O)OCC(C)(C)C2 (atropisomer, axis not shown; (M)) | 9.7
8) CO[C@@H](C)c1ncc(N2CCN3CCCC[C@@H]3C2)cc1-c1c2c3cc(cc4c3n1CCC4)-c1csc(n1)C[C@H](NC(=O)[C@H]1[C@H](C)[C@@H]1C)C(=O)N1CCC[C@H](N1)C(=O)OCC(C)(C)C2 (atropisomer, axis not shown; (M)) | 5.4
